Tested on: second AHAS-inhibitor susceptible WOSR line
Assay: Greenhouse post-emergence herbicide crop damage, Example 2, susceptible line
Assay type: in vivo, Brassica napus
Settings: post-emergence at GS/BBCH 10, assessed 19 DAT
property: ED50 (crop damage, scale 0 to 100% vs untreated control)

{"columns": ["compound", "endpoint-result"],
 "data": [
  ["COc1nc(NC(=O)NS(=O)(=O)c2ccccc2C(F)(F)F)nc(C(F)(F)F)n1 [Tritosulfuron]", "1.76 g/ai/ha"],
  ["COc1nc(C)nc(NC(=O)NS(=O)(=O)c2ccccc2Cl)n1 [Chlorsulfuron]", "0.04 g/ai/ha"],
  ["COC(=O)c1ccc(C(F)(F)F)nc1S(=O)(=O)NC(=O)Nc1nc(OC)cc(OC)n1 [Flupyrsulfuron-methyl-sodium]", "0.79 g/ai/ha"],
  ["CCCOc1nn(C(=O)[N-]S(=O)(=O)c2ccccc2C(=O)OC)c(=O)n1C.[Na+] [Propoxycarbazone-sodium]", "0.17 g/ai/ha"]
]}
